TEST SYSTEM: human GLP-1 receptor (human, UniProt P43220 24-463)
ASSAY: cell-based or functional assay
Numbered stars: 1 amine (or outer) side, 2 acyl side, 3 side chain; on linkers, the order of the positions; unused ones are H or OH. Square brackets hold non-standard residues; d marks the D form. Side chains are listed from the residue outwards. Ends that are not written are not given here. * marks the point of attachment. C18 diacid = O=C(O)CCCCCCCCCCCCCCCCC(=O)*; γGlu = O=C(O)[C@H](CCC(=O)[*:2])N[*:1]; Palmitoyl = CCCCCCCCCCCCCCCC(=O)*; AEEA = NCCOCCOCC(=O)O; Aib = CC(C)(N)C(=O)O
TEST READOUT: EC50 of GLP-1 receptor mediated cAMP production (nM)
Answers are plain numbers, in nM.

BINDER	REPORTED VALUE
H[Aib]QGTFTSDYSKYLEERAAK([AEEA-AEEA-γGlu-C18 diacid])EFVEWLEGGPSSG-NH2 (not fully specified; printed as HAibQGTFTSDYSKYLEERAAK**EFVEWLEGGPSSG-Amid) [Compound 32]	1.01
H[Aib]QGTFTSDYSKYLEERKAK([AEEA-AEEA-γGlu-C18 diacid])EFIAWLEAGGPSSG-NH2 (not fully specified; printed as HAibQGTFTSDYSKYLEERKAK**EFIAWLEAGGPSSG-Amid) [Compound 44]	0.371
H[Aib]QGTFTSDK([γGlu-γGlu-Palmitoyl])SKYLEERAAKEFIAWLEGGPSSG-NH2 (not fully specified; printed as HAibQGTFTSDK*SKYLEERAAKEFIAWLEGGPSSG-Amid) [Compound 21]	0.83

Okay, now this binder:
Qu. Given H[Aib]QGTFTSDK([AEEA-AEEA-γGlu-C18 diacid])SKYLEERAAKEFVAWLEAGGPSSG-NH2 (not fully specified; printed as HAibQGTFTSDK**SKYLEERAAKEFVAWLEAGGPSSG-Amid) [Compound 22] , state its recorded EC50 of GLP-1 receptor mediated cAMP production.
Ans. 0.027

Where these numbers come from: patent US20240252592A1
